Measurement kind: melting point

COc1ccc(C2=CCC3(C)C(CCC4C3CCC3(C)C(OC(C)=O)CCC43)C2)cc1 (stereo not drawn)	177 to 180 °C
COc1ccccc1-c1ccc(C=CC(=O)c2ccco2)o1	96 to 98 °C
CC/C(=N/NC(N)=O)C1=CC2(C)CCC1C2(C)C (stereo not drawn)	196 to 197 °C

With those in mind, consider the next compound.
I would be grateful if you could share the reported melting point for Cc1c(C(=O)O)cnn1-c1ccc(F)cc1 .
165 to 166 °C

---

Each item that follows carries a reported melting point.

CCCCOc1ccc(NC(C)=O)cc1	110 to 112 °C
CNC(=S)C#N	37 to 46 °C
O=C1C(CCl)(CCl)CCC1(CCl)CCl	72 °C
OCC1OC1c1ccccc1 (stereo not given)	51 to 53 °C
Cc1cc([N+](=O)[O-])ccc1N=C=S	82 to 84 °C
COC[C@H]1CCCN1C(=S)SCC(=O)c1ccc(Br)cc1	89.5 °C
O=C(O)c1csc(N2CCOCC2)n1	175 to 177 °C
COc1ccc2c(c1)CC2C#N (stereo not given)	48 to 56 °C
Cc1nc(-c2cccc(C=O)c2)no1	98 to 99 °C

With those in mind, consider the next compound.
I would be grateful if you could share the reported melting point for CC(CSc1ccc(Cl)cc1)C(=O)O (stereo not given) .
63 to 65 °C

---

Measurement kind: melting point (°C)
Give the number; °C is assumed, so skip it.

Sample records with melting point:
CC(=O)Oc1ccc(C(=C2CCCCC2)c2ccc(OC(C)=O)cc2)cc1	136
CCOc1ccc(C=O)cc1OCC	22
COc1cc(C2Nn3c(nnc3-c3cccc([N+](=O)[O-])c3)S2)ccc1O (stereo not given)	165
CCN(CC)C(=O)C(C)Oc1cccc2ccccc12 (stereo not given)	75
CC=CC=CCCCCCCCO	32
Fc1ccc(OCC2CO2)cc1 (stereo not given)	19.5

I would be grateful if you could share the reported melting point for COc1ccc(C=C2C(=O)NC(=O)NC2=O)cc1OC .
265

What about O=[N+]([O-])c1ccccc1CBr ?
47

What about O=C(O)C=Cc1ccc(Cl)c([N+](=O)[O-])c1 ?
187

What about O=C1C(Cl)=C(Cl)C(=O)N1c1ccc(F)cc1 ?
241

What about Cc1cc(O)c(Cl)c(C)c1Cl ?
95.5

What about BrCCCCCCCBr ?
41.7

What about Cc1cc(N(C)C)nc(Cl)n1 ?
87

---

Measurement kind: melting point

CNCc1sc(-c2ccccc2)nc1-c1ccccc1	87 to 88 °C
NNC(=O)c1ccsc1	126 to 128 °C
c1ccc2c(c1)OCCOCCOCCOCCOCCO2	40 to 45 °C

With those in mind, consider the next molecule.
I would be grateful if you could share the reported melting point for CCC1C(C#N)=C(N)Oc2c1c(=O)oc1ccccc21 (centres undefined) .
233 to 237 °C

---

Measurement kind: melting point

Sample records with melting point:
CCOC(=O)c1cc(-c2ccco2)n(C)n1	63 to 64 °C
O=C(O)c1cc(S(=O)(=O)F)ccc1Cl	148 to 151 °C
OCc1cccc(-c2cncnc2)c1	65 to 66 °C
O=C(O)Cc1coc2ccccc12	90 to 93 °C
Cc1cc(C)c2c(N)c(C(N)=O)sc2n1	234 to 235 °C

I would be grateful if you could share the reported melting point for Clc1ccc(Br)nc1 .
65 to 69 °C

---

Returns one of label 1 or label 0; label 1 when melting point is >= 200 °C.

Cc1c(NC(=O)c2cccnc2)c(=O)n(-c2ccccc2)n1C	label 1
COc1ccc(CC2c3cc(OC)c(OC)cc3CCN2C)cc1O (stereo unspecified)	label 0
O=c1c2ccccc2ccc2ccccc12	label 0
CCCCCCCCCC(O)CC (stereo unspecified)	label 0
O=C1COc2ccccc21	label 0

Does the reported melting point for O=C(O)c1cc(Cl)c(Cl)cc1Cl fall at or above the 200 °C mark?
label 0

---

Each item that follows carries a reported melting point.

S=C=Nc1c(Cl)cc(Cl)cc1Cl	74 to 76 °C
CNc1ncc(C(F)(F)F)cc1[N+](=O)[O-]	98 to 100 °C
S=c1[nH]c2ncccc2o1	243 to 246 °C
O=C(CCc1ccc(O)cc1)ON1C(=O)CCC1=O	133 to 135 °C

I would be grateful if you could share the reported melting point for O=C(O)c1ncccc1N1CCCCC1 .
102 to 109 °C

What about O=C(O)c1cc2cc(OC(F)(F)F)ccc2[nH]1 ?
204 to 207 °C

What about NC(=S)c1ccc(F)c(Cl)c1 ?
129 to 131 °C

What about CN1CCN(c2cccc(N)c2)CC1 ?
98 to 99 °C

---

Measurement kind: melting point

C=C(C)C1CC=C(C(=O)O)CC1 (stereo not drawn)	129 to 135 °C
Cc1ccc(N=CN(C)C=Nc2ccc(C)cc2C)c(C)c1	86 °C

With those in mind, consider the next compound.
I would be grateful if you could share the reported melting point for CC(C)CC(C)(O)C#CC(C)(O)CC(C)C (stereo not drawn) .
42 to 44 °C

---

Each item that follows carries a reported melting point.

C/C(=N\c1ccccc1O)c1c(O)c2ccccc2n(-c2ccccc2)c1=O	268 to 269 °C
O=C(O)C(Cl)CCl (stereo not given)	50 °C
CSc1nc2cc(NCc3ccccc3Cl)ccc2[nH]1	207 to 209 °C

I would be grateful if you could share the reported melting point for O=C1OC(c2ccccc2)=NC1=Cc1ccc([N+](=O)[O-])cc1 .
214 to 215 °C

What about COc1ccc(OCC(=O)O)cc1 ?
112 to 114 °C

What about O=C1C2CC(CN3CCCCC23)C2CCCCN12 (stereo not given) ?
111 °C

What about OCC(F)(F)C(F)(F)C(F)(F)C(F)(F)C(F)(F)C(F)(F)C(F)(F)F ?
43 to 47 °C

What about CCOC(=O)NC(=O)CCl ?
127 to 131 °C

What about CC(=O)C1=C(C)C(C)(O)NC1=O (stereo not given) ?
172 to 174 °C

What about CC1=CC(=O)C=CC1=O ?
69 °C

---

Each item that follows carries a reported melting point.

Sample records with melting point:
CC1C(=O)NC(=O)C1(C)C (centres undefined)	117 to 122 °C
N#Cc1cc(Cl)ccc1O	165 to 168 °C
Cn1c(N)nc2ccccc21	203 to 206 °C

With those in mind, consider the next molecule.
I would be grateful if you could share the reported melting point for Brc1ccc(Oc2ccc(Br)c(Br)c2)cc1 .
48 to 49 °C

---

Each item that follows carries a reported melting point.
Give the number; °C is assumed, so skip it.

Sample records with melting point:
CCCOCC(=Nc1ccc(Cl)cc1C(F)(F)F)n1ccnc1	63.5
Cc1cc(C)c(O)c(C(=O)CC2CC(=O)NC(=O)C2)c1	201

I would be grateful if you could share the reported melting point for FC(F)(F)C(F)(F)Cl .
-99.4

What about CCc1cccc([N+](=O)[O-])c1 ?
-37.9

What about Nc1c([N+](=O)[O-])cccc1[N+](=O)[O-] ?
142

What about CCCCC#CCCCC ?
-73

What about COc1ccc2sc(C)nc2c1 ?
36

What about COC(=O)C1=C(C)NC(=O)NC1c1ccc(Cl)cc1 (stereo not given) ?
172

---

Measurement kind: melting point

Sample records with melting point:
Clc1cc(Cl)c(I)c(Cl)c1	56 to 58 °C
CC(=O)c1ccc(NC(=O)CCl)cc1	150 to 151 °C
CCC1N(O)C(C)(C)C(C(=O)O)=[N+]1[O-] (stereo unspecified)	98.8 to 99 °C
CCC1(C)C=C/C(=N\NS(=O)(=O)c2ccc(C)cc2)CC1 (stereo unspecified)	159 to 169 °C
OCC(Br)=C(Br)CO	111 to 116 °C

I would be grateful if you could share the reported melting point for O=C(NC1(C(=O)O)Cc2ccccc2C1)OCC1c2ccccc2-c2ccccc21 .
198 to 202 °C

---

Each item that follows carries a reported melting point.

Sample records with melting point:
O=Cc1ccc2nsnc2c1	90 to 92 °C
Cc1nn(-c2ccccc2)c(C)c1C#N	85 to 86 °C
Clc1cncc(Oc2ccc(Cl)nn2)c1	112 to 114 °C
Nc1c(Cl)c(Cl)nc(Cl)c1Cl	212 to 215 °C
Cc1ccc(-c2ccc(C=CC(=O)c3ccccc3)o2)cc1	100 to 101 °C

I would be grateful if you could share the reported melting point for Cc1ccc2sc(C=O)cc2c1 .
98 to 99 °C

What about Cc1cc(C(F)(F)F)n2nc(N)c(/N=N/c3ccccc3)c2n1 ?
201 to 203 °C

What about Nc1nc(Br)c2ccccc2c1Cc1ccccc1 ?
155 to 156 °C

---

Each item that follows carries a reported melting point.

Sample records with melting point:
ClCc1cc2cc(Br)ccc2o1	63 to 64 °C
OCc1cc(-c2ccccc2)on1	99 to 102 °C
OCc1ccc(-n2ccnc2)cc1	87 to 89 °C
O=C(c1ccccc1)C1C(=O)c2ccccc2C1=O	108 to 112 °C
CSc1nc2ccc(N)cc2s1	105 to 107 °C

With those in mind, consider the next compound.
I would be grateful if you could share the reported melting point for CCSc1nc(N)nc(C(C)C)n1 .
115 to 117 °C

Hello, the source for this data is a melting point compilation (Tetko et al.), in case you need it.
